- Test system: SK-MEL-5 melanoma
- Assay: NCI tumour cell line growth inhibition, 48 h; in the data active = GI50 below about 0.43 µM; inactive = the rest
# valid calls are 1 for active, 0 for inactive; nothing else

See these solved cases before continuing.
- O=C(c1ccccc1)c1ccccc1-c1ccccc1: 0
- Clc1nc(Cl)c2ncn(CC3(Cn4cnc5c(Cl)nc(Cl)nc54)COC3)c2n1: 1
- C=C(C)C(O)CCC1(C)C=Cc2c(c(C)cc3c2[nH]c2ccccc23)O1 (configuration not stated): 0
- C[C@]12C[C@H](CCCCCCNCCOC(=O)NCCCc3ccc(N(CCCl)CCCl)cc3)C3=C4CCC(=O)C=C4CCC3C1CC[C@@H]2O (some centres not stated): 0
- Fc1ccc(C2CC(c3cccc(Nc4ccncc4)c3)=NN2c2ccc(Cl)cc2)cc1 (configuration not stated): 0
- CN(CCO)CC[C@H](CSc1ccccc1)Nc1ccc(S(=O)(=O)NC(=O)c2ccc(N3CCC([C@@H](O)c4ccccc4-c4ccc(Cl)cc4)CC3)cc2)cc1S(=O)(=O)C(F)(F)F: 0

**Query** Hello, I am checking results. What call was entered for `CN1CCC2(CC1)ONC1=NCCN12` ?
**Result** 0

**Query** Hello, I am checking results. What call was entered for `COc1cccc(N2CCN(CC(=O)N3CCN(c4nnc(-c5ccc(Cl)cc5)c(-c5ccc(Cl)cc5)n4)CC3)CC2)c1` ?
**Result** 0

**Query** Hello, I am checking results. What call was entered for `C=C1C(=O)O[C@H]2[C@H]1CC/C(CNC(=O)/C=C/c1cc(OC)c(OC)c(OC)c1)=C\CC[C@@]1(C)O[C@@H]21` ?
**Result** 0

**Query** Hello, I am checking results. What call was entered for `C=C(CN1C(=O)CN(C)C1=O)c1ccc(C(=O)Nc2ccccc2N)cc1` ?
**Result** 0

**Query** Hello, I am checking results. What call was entered for `COC(=O)c1ccc(-c2nc3cc(Cl)c(Cl)cc3nc2C#N)cc1` ?
**Result** 0

**Query** Hello, I am checking results. What call was entered for `C=CCN=c1sc2c(n1NC(=O)c1cc3ccc1CCc1ccc(cc1)CC3)C(=O)c1ccccc1C2=O` ?
**Result** 0

====

- Tested on: HCT-15 colon
- Assay: NCI tumour cell line growth inhibition, 48 h
Parameter: TGI. Scope: all listed entries.

• O=C1C(Cl)=C(Nc2cccc(Cl)c2)C(=O)N1Cc1ccc(Cl)cc1 = 13 µM
• CCCCCCCCCCCc1nnc(N)o1 = > 100 µM
• O=C1N(C2CCCCC2)CC12CCCCC2 = > 100 µM
• COC(=O)C1CC23CCCN4CCC5(c6ccccc6N(C=O)C15CC2)C43 (stereo unspecified) = > 100 µM
• CCc1cc2c(c3c1CCC3=O)CC1(Cc3ccc(C)cc3C1)C2 (stereo unspecified) = > 100 µM

**Query** Report TGI for `N#Cc1ccc(OCc2nc(N)nc(N)c2-c2ccc(Cl)c(Cl)c2)cc1` please.
**Result** > 100 µM

**Query** Report TGI for `CCCCCCCCNc1cc2c3c(c1)CCCN3CCC2` please.
**Result** 38.5 µM

**Query** Report TGI for OC(Cc1ccncc1)C(Cl)(Cl)Cl (stereo unspecified) please.
**Result** > 100 µM

**Query** Report TGI for `Cc1ccc(S(=O)(=O)N2CCC(=O)c3cc(Br)ccc32)cc1` please.
**Result** > 100 µM

**Query** Report TGI for CC1CCC2(O)C3(C)CC4(O)OC2(C1O)C1(O)C3(O)C(OC(=O)c2ccc[nH]2)C(O)(C(C)C)C41C (stereo unspecified) please.
**Result** > 100 µM

**Query** Report TGI for CC(Cc1ccccc1)Nc1ncnc2c1ncn2C1OC(CO)CC1O (stereo unspecified) please.
**Result** > 100 µM
